Record form. Attribute: viability at 20 µM. Fill in for each entry.
# Test system: glioma (U-118 MG)
# Test: MTS metabolic activity assay, U-118 MG cells
# Type: cell-based
# Conditions used: Homo sapiens, U-118-MG; U118-MG, 20 µM, 72 h; read-out: Cell metabolic activity (MTS), % of untreated control
Give bare numbers, in %.

(Q) For the molecule O=C1N=C(NC2CCCC2)SC1c1ccc(Br)cc1 (stereo not drawn) , what viability at 20 µM is on record?
(A) 110

For each of the molecules below, note its viability at 20 µM.
1. CCCC1SC(NC2CCCC2)=NC1=O (stereo not drawn)
2. CCC1SC(NC2CCCC2)=NC1=O (stereo not drawn)

(A)
1: 110; 2: 107

For each of the molecules below, note its viability at 20 µM.
1. O=C1N=C(NC2CCCC2)SC12CCCCC2
2. O=C1N=C(NC2CCCC2)SC1c1ccccc1 (stereo not drawn)
3. CC1(C)SC(NC2CCCC2)=NC1=O
4. CC1SC(NC2CCCC2)=NC1=O (stereo not drawn)
5. O=C1N=C(NC2CCCC2)SC12CCC2
6. CC(C)C1SC(NC2CCCC2)=NC1=O (stereo not drawn)

(A)
1. 111
2. 114
3. 110
4. 109
5. 108
6. 111

----------
Record form. Attribute: viability at 50 µM. Fill in for each entry.
# Test system: human colon carcinoma (Caco-2)
# Test: MTS metabolic activity assay, Caco-2 cells
# Format: cell-based
# Conditions used: Homo sapiens; Caco-2, 50 µM, 72 h; read-out: Cell metabolic activity (MTS), % of untreated control
Give bare numbers, in %.

For each of the compounds below, note its viability at 50 µM.
1. CC1SC(NC2CCCC2)=NC1=O (stereo not drawn)
2. O=C1N=C(NC2CCCC2)SC12CCCCC2
3. CCC1SC(NC2CCCC2)=NC1=O (stereo not drawn)
4. CC(C)C1SC(NC2CCCC2)=NC1=O (stereo not drawn)
5. O=C1N=C(NC2CCCC2)SC1c1ccc(Br)cc1 (stereo not drawn)

(A)
1. 82.6
2. 99.9
3. 84.4
4. 90.8
5. 87.3

For each of the compounds below, note its viability at 50 µM.
1. O=C1N=C(NC2CCCC2)SC1c1ccccc1 (stereo not drawn)
2. CCCC1SC(NC2CCCC2)=NC1=O (stereo not drawn)
3. O=C1N=C(NC2CCCC2)SC12CCC2

(A)
1: 93.7; 2: 87.6; 3: 92.9

(Q) For the compound CC1(C)SC(NC2CCCC2)=NC1=O , what viability at 50 µM is on record?
(A) 86.7

----------
# System: human colon carcinoma (Caco-2)
# Test: MTS metabolic activity assay, Caco-2 cells
# Type: cell-based
# Conditions used: Homo sapiens; Caco-2, 500 µM, 72 h; read-out: Cell metabolic activity (MTS), % of untreated control
viability at 500 µM strictly under 60% means True; at 60% or over means False.

Worked examples follow.
(Q) Problem: For the compound CC(C)C1SC(NC2CCCC2)=NC1=O (stereo not drawn) , is viability at 500 µM under 60%?
(A) False

(Q) Problem: For the compound CC1SC(NC2CCCC2)=NC1=O (stereo not drawn) , is viability at 500 µM under 60%?
(A) False

(Q) Problem: For the compound CCC1SC(NC2CCCC2)=NC1=O (stereo not drawn) , is viability at 500 µM under 60%?
(A) False

(Q) Problem: For the compound O=C1N=C(NC2CCCC2)SC1c1ccc(Br)cc1 (stereo not drawn) , is viability at 500 µM under 60%?
(A) True

Next:
(Q) Problem: For the compound O=C1N=C(NC2CCCC2)SC12CCCCC2 , is viability at 500 µM under 60%?
(A) False

----------
# System under test: 11β-HSD1 (Homo sapiens)
# Construct: Human liver microsomes were used as a source of 11β-HSD1 enzyme; tissue XenoTech Lot No. 1410013; host or cells: pooled human liver microsomes, mixed gender
# Sequence (P28845 whole entry): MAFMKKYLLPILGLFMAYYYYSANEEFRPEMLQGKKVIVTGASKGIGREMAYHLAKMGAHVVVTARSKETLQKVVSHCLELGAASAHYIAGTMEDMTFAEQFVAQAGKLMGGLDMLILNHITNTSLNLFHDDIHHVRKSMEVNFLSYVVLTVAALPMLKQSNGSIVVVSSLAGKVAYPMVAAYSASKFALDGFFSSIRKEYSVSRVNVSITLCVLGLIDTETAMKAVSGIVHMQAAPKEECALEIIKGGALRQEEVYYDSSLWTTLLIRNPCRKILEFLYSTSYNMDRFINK
# Test: Inhibition of 11β-HSD1 (cortisone to cortisol, human liver microsomes, cortisol ELISA)
# Format: biochemical
# Conditions used: 10 µM, 2.5 h, 37 °C
Record form. Attribute: inhibition at 10 µM. Fill in for each entry.
One number for each entry, in %.

In the examples that follow, each entry is paired with its recorded inhibition at 10 µM.
(Q) For the compound O=C1N=C(NC2CCCC2)SC12CCCCC2 , what inhibition at 10 µM is on record?
(A) 90

(Q) For the compound O=C1N=C(NC2CCCC2)SC12CCC2 , what inhibition at 10 µM is on record?
(A) 71.2

(Q) For the compound CCCC1SC(NC2CCCC2)=NC1=O (stereo not shown) , what inhibition at 10 µM is on record?
(A) 56.6

(Q) For the compound CC1SC(NC2CCCC2)=NC1=O (stereo not shown) , what inhibition at 10 µM is on record?
(A) 10.9

(Q) For the compound CC(C)C1SC(NC2CCCC2)=NC1=O (stereo not shown) , what inhibition at 10 µM is on record?
(A) 82.9

For each of the compounds below, note its inhibition at 10 µM.
1. CC1(C)[C@@H](OC(=O)CCC(=O)O)CC[C@]2(C)[C@H]3C(=O)C=C4[C@@H]5C[C@@](C)(C(=O)O)CC[C@]5(C)CC[C@@]4(C)[C@]3(C)CC[C@@H]12 [carbenoxolone, reference compound]
2. O=C1N=C(NC2CCCC2)SC1c1ccc(Br)cc1 (stereo not shown)
3. O=C1N=C(NC2CCCC2)SC1c1ccccc1 (stereo not shown)
4. CCC1SC(NC2CCCC2)=NC1=O (stereo not shown)
5. CC1(C)SC(NC2CCCC2)=NC1=O

(A)
90.4
87
64.3
21.3
53.2

----------
# Tested on: BJ cells
# Test: MTS metabolic activity assay, BJ cells
# Format: cell-based
# Conditions used: Homo sapiens, 20 µM, 72 h, read-out: Cell metabolic activity (MTS), % of untreated control
Outcome measure: viability at 20 µM
Reply with the number and its unit after it.

(Q) For the molecule CCC1SC(NC2CCCC2)=NC1=O (stereo not drawn) [Compound 3b] , what viability at 20 µM is on record?
(A) 98.5%

(Q) For the molecule O=C1N=C(NC2CCCC2)SC1c1ccccc1 (stereo not drawn) [Compound 3f] , what viability at 20 µM is on record?
(A) 102%

Next:
(Q) For the molecule CC(C)C1SC(NC2CCCC2)=NC1=O (stereo not drawn) [Compound 3d] , what viability at 20 µM is on record?
(A) 106%

----------
# Test system: human breast carcinoma (MDA-MB-231)
# Test: MTS metabolic activity assay, MDA-MB-231 cells
# Type: cell-based
# Conditions used: Homo sapiens; MDA-MB-231, 10 µM, 72 h; read-out: Cell metabolic activity (MTS), % of untreated control
Record form. Attribute: viability at 10 µM. Fill in for each entry.

In the examples that follow, each entry is paired with its recorded viability at 10 µM.
(Q) For the compound O=C1N=C(NC2CCCC2)SC12CCCCC2 , what viability at 10 µM is on record?
(A) 91.6%

(Q) For the compound CC1(C)SC(NC2CCCC2)=NC1=O , what viability at 10 µM is on record?
(A) 96.3%

(Q) For the compound CC(C)C1SC(NC2CCCC2)=NC1=O (stereo not drawn) , what viability at 10 µM is on record?
(A) 92.8%

(Q) For the compound CCCC1SC(NC2CCCC2)=NC1=O (stereo not drawn) , what viability at 10 µM is on record?
(A) 101%

(Q) For the compound CCC1SC(NC2CCCC2)=NC1=O (stereo not drawn) , what viability at 10 µM is on record?
(A) 97.5%

// switching to the query compound
(Q) For the compound O=C1N=C(NC2CCCC2)SC1c1ccc(Br)cc1 (stereo not drawn) , what viability at 10 µM is on record?
(A) 92.9%

----------
# Test system: skin melanoma (SK-MEL-30)
# Test: MTS metabolic activity assay, SK-MEL-30 cells
# Assay type: cell-based
# Conditions used: Homo sapiens; SK-MEL-30, 20 µM, 72 h; read-out: Cell metabolic activity (MTS), % of untreated control
Outcome measure: viability at 20 µM (%)
One number for each entry, in %.

In the examples that follow, each entry is paired with its recorded viability at 20 µM.
(Q) For the compound CC1(C)SC(NC2CCCC2)=NC1=O [Compound 3e] , what viability at 20 µM is on record?
(A) 100

(Q) For the compound O=C1N=C(NC2CCCC2)SC12CCC2 [Compound 3i] , what viability at 20 µM is on record?
(A) 94

// switching to the query compound
(Q) For the compound CCCC1SC(NC2CCCC2)=NC1=O (stereo not drawn) [Compound 3c] , what viability at 20 µM is on record?
(A) 102
